B1: LINE1-full (parent)
chain: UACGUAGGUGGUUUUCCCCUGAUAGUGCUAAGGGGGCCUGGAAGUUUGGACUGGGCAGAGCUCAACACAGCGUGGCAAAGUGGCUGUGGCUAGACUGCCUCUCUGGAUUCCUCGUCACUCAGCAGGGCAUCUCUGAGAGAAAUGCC

- Variants of: B1
- testDescription: self-cleavage, relative activity (ratio to wild type); higher = more cleavage; in vitro, sequencing; the parent is a self-cleaving ribozyme
So basically: self-cleavage at 1 or higher? That is t. Lower than 1? That is f.

variantDesignation	classification
C61A U62C	f
G35A A57U	f
U23G U115C	t
U39A C116A	t
A22U U26C	t
A78G G105A	t
U45C U109A	t
U96C C146A	f
U15C G75A	t
C38U A121G	t
U96G U108C	f
A94C A124G	f
G58U A136G	f
C76U A94G	f
A50G G80U	f
A24G A78U	t
U112C A136U	t
G58A A64G	f
G40A A142G	f
U15A G40A	t
G33U A77G	t
U46A A142G	t
U81A U91C	f
A31G U104A	f
U73A U109A	f
G32C A117G	t
C3A A138G	f
U9A U85C	f
G54A G88A	f
C19U A117G	t
U47A U130C	t
U13G U47C	t
C111A A117G	t
U15A	f
G41A U130A	t
U9G U73C	t
A79U G89U	f
U47C G89A	f
U73A	t
U14A A129G	t
U73C A140G	t
A6G U143A	f
U14A A50G	t
G10A U14C	t
U73A A77U	f
U1A A129G	t

Numbers sourced from the RNAGym collection of RNA variant scans (doi:10.7554/elife.90254).
